- Procedure Details: Kinetic solubility (2 hours) in SGF media
- Format: physicochemical
- Measurement Conditions: simulated gastric fluid, thermodynamic from solid, 2 hours, 25° C.
Readout Label: solubility kinetic at 2 h (mg/mL)
One number for each entry, in mg/mL.

Incoming: Specify reported solubility kinetic at 2 h for the compound shown: CC[C@H]1OC(=O)[C@H](C)C(=O)[C@H](C)[C@@H](O[C@@H]2O[C@H](C)C[C@H](N(C)C)[C@H]2O)[C@](C)(OC/C=C/c2cnc3ccccc3c2)C[C@@H](C)C(=O)[C@H](C)[C@H]2NC(=O)O[C@@]21C
Outgoing: 25

====

- Procedure Details: Preliminary solubility investigation of amorphous cethromycin in solvents
- Type: physicochemical
- Measurement Conditions: Hept (heptane), 50 °C, organic solvent or mixture, thermodynamic from solid, Hept, 30 vol, heated to 50° C.
Readout Label: Solubility

Incoming: Specify reported Solubility for the molecule shown: CC[C@H]1OC(=O)[C@H](C)C(=O)[C@H](C)[C@@H](O[C@@H]2O[C@H](C)C[C@H](N(C)C)[C@H]2O)[C@](C)(OC/C=C/c2cnc3ccccc3c2)C[C@@H](C)C(=O)[C@H](C)[C@H]2NC(=O)O[C@@]21C [Cethromycin]
Outgoing: < 33.3 mg/mL

====

- Procedure Details: Thermodynamic solubility (24 hours) in DI water
- Type: physicochemical
- Measurement Conditions: thermodynamic from solid; DI water, 24 hours, 25° C.
Readout Label: solubility thermodynamic at 24 h (µg/mL)
Answers are plain numbers, in µg/mL.

Incoming: Specify reported solubility thermodynamic at 24 h for the compound shown: CC[C@H]1OC(=O)[C@H](C)C(=O)[C@H](C)[C@@H](O[C@@H]2O[C@H](C)C[C@H](N(C)C)[C@H]2O)[C@](C)(OC/C=C/c2cnc3ccccc3c2)C[C@@H](C)C(=O)[C@H](C)[C@H]2NC(=O)O[C@@]21C
Outgoing: 400

====

- Procedure Details: Preliminary solubility investigation of amorphous cethromycin in solvents
- Type: physicochemical
- Measurement Conditions: 2-propanol, 50 °C, organic solvent or mixture, thermodynamic from solid, 10 vol, heated to 50° C.
Readout Label: Solubility

Incoming: Specify reported Solubility for the compound shown: CC[C@H]1OC(=O)[C@H](C)C(=O)[C@H](C)[C@@H](O[C@@H]2O[C@H](C)C[C@H](N(C)C)[C@H]2O)[C@](C)(OC/C=C/c2cnc3ccccc3c2)C[C@@H](C)C(=O)[C@H](C)[C@H]2NC(=O)O[C@@]21C
Outgoing: > 100 mg/mL

====

- Procedure Details: Preliminary solubility investigation of amorphous cethromycin in solvents
- Assay type: physicochemical
- Measurement Conditions: Hept (heptane), 50 °C, organic solvent or mixture, thermodynamic from solid, Hept, 50 vol, heated to 50° C.
- Procedure: Amorphous cethromycin (25 mg) in HPLC vials was treated with increasing volumes of solvent until the material fully dissolved or until a maximum of 60 vol (1.5 ml) had been added. After each addition of solvent, the vials were stirred and gently heated to 50° C. before the addition of a new aliquot of solvent. […] All solids were then isolated by filtration and dried under suction. […] All isolated solids were analysed by PXRD.
Readout Label: Solubility

Incoming: Specify reported Solubility for the compound shown: CC[C@H]1OC(=O)[C@H](C)C(=O)[C@H](C)[C@@H](O[C@@H]2O[C@H](C)C[C@H](N(C)C)[C@H]2O)[C@](C)(OC/C=C/c2cnc3ccccc3c2)C[C@@H](C)C(=O)[C@H](C)[C@H]2NC(=O)O[C@@]21C [Cethromycin]
Outgoing: < 20 mg/mL

====

- Procedure Details: Preliminary solubility investigation of amorphous cethromycin in solvents
- Type: physicochemical
- Measurement Conditions: Hept (heptane), 50 °C, organic solvent or mixture, thermodynamic from solid, Hept, 60 vol, heated to 50° C.
- Method: Amorphous cethromycin (25 mg) in HPLC vials was treated with increasing volumes of solvent until the material fully dissolved or until a maximum of 60 vol (1.5 ml) had been added. After each addition of solvent, the vials were stirred and gently heated to 50° C. before the addition of a new aliquot of solvent. […] All solids were then isolated by filtration and dried under suction. […] All isolated solids were analysed by PXRD.
Readout Label: Solubility

Incoming: Specify reported Solubility for the molecule shown: CC[C@H]1OC(=O)[C@H](C)C(=O)[C@H](C)[C@@H](O[C@@H]2O[C@H](C)C[C@H](N(C)C)[C@H]2O)[C@](C)(OC/C=C/c2cnc3ccccc3c2)C[C@@H](C)C(=O)[C@H](C)[C@H]2NC(=O)O[C@@]21C
Outgoing: < 16.7 mg/mL

====

- Procedure Details: Preliminary solubility investigation of amorphous cethromycin in solvents
- Assay type: physicochemical
- Measurement Conditions: Hept (heptane), 50 °C, organic solvent or mixture, thermodynamic from solid, Hept, 40 vol, heated to 50° C.
- Protocol: Amorphous cethromycin (25 mg) in HPLC vials was treated with increasing volumes of solvent until the material fully dissolved or until a maximum of 60 vol (1.5 ml) had been added. After each addition of solvent, the vials were stirred and gently heated to 50° C. before the addition of a new aliquot of solvent. […] All solids were then isolated by filtration and dried under suction. […] All isolated solids were analysed by PXRD.
Readout Label: Solubility

Incoming: Specify reported Solubility for the compound shown: CC[C@H]1OC(=O)[C@H](C)C(=O)[C@H](C)[C@@H](O[C@@H]2O[C@H](C)C[C@H](N(C)C)[C@H]2O)[C@](C)(OC/C=C/c2cnc3ccccc3c2)C[C@@H](C)C(=O)[C@H](C)[C@H]2NC(=O)O[C@@]21C [Cethromycin]
Outgoing: < 25 mg/mL

====

- Procedure Details: Preliminary solubility investigation of amorphous cethromycin in solvents
- Format: physicochemical
- Measurement Conditions: Hept (heptane), 50 °C, organic solvent or mixture, thermodynamic from solid, Hept, 20 vol, heated to 50° C.
Readout Label: Solubility

Incoming: Specify reported Solubility for the compound shown: CC[C@H]1OC(=O)[C@H](C)C(=O)[C@H](C)[C@@H](O[C@@H]2O[C@H](C)C[C@H](N(C)C)[C@H]2O)[C@](C)(OC/C=C/c2cnc3ccccc3c2)C[C@@H](C)C(=O)[C@H](C)[C@H]2NC(=O)O[C@@]21C [Cethromycin]
Outgoing: < 50 mg/mL

====

- Procedure Details: Preliminary solubility investigation of amorphous cethromycin in solvents
- Type: physicochemical
- Measurement Conditions: THF, 50 °C, organic solvent or mixture, thermodynamic from solid, 10 vol, heated to 50° C.
- Experimental: Amorphous cethromycin (25 mg) in HPLC vials was treated with increasing volumes of solvent until the material fully dissolved or until a maximum of 60 vol (1.5 ml) had been added. After each addition of solvent, the vials were stirred and gently heated to 50° C. before the addition of a new aliquot of solvent. […] All solids were then isolated by filtration and dried under suction. […] All isolated solids were analysed by PXRD.
Readout Label: Solubility

Incoming: Specify reported Solubility for the molecule shown: CC[C@H]1OC(=O)[C@H](C)C(=O)[C@H](C)[C@@H](O[C@@H]2O[C@H](C)C[C@H](N(C)C)[C@H]2O)[C@](C)(OC/C=C/c2cnc3ccccc3c2)C[C@@H](C)C(=O)[C@H](C)[C@H]2NC(=O)O[C@@]21C
Outgoing: > 100 mg/mL

====

- Procedure Details: Preliminary solubility investigation of amorphous cethromycin in solvents
- Assay type: physicochemical
- Measurement Conditions: EtOAc, 50 °C, organic solvent or mixture, thermodynamic from solid, 10 vol, heated to 50° C.
Readout Label: Solubility

Incoming: Specify reported Solubility for the compound shown: CC[C@H]1OC(=O)[C@H](C)C(=O)[C@H](C)[C@@H](O[C@@H]2O[C@H](C)C[C@H](N(C)C)[C@H]2O)[C@](C)(OC/C=C/c2cnc3ccccc3c2)C[C@@H](C)C(=O)[C@H](C)[C@H]2NC(=O)O[C@@]21C
Outgoing: > 100 mg/mL

====

- Procedure Details: Preliminary solubility investigation of amorphous cethromycin in solvents
- Format: physicochemical
- Measurement Conditions: TBME, 50 °C, organic solvent or mixture, thermodynamic from solid, 10 vol, heated to 50° C.
Readout Label: Solubility

Incoming: Specify reported Solubility for the compound shown: CC[C@H]1OC(=O)[C@H](C)C(=O)[C@H](C)[C@@H](O[C@@H]2O[C@H](C)C[C@H](N(C)C)[C@H]2O)[C@](C)(OC/C=C/c2cnc3ccccc3c2)C[C@@H](C)C(=O)[C@H](C)[C@H]2NC(=O)O[C@@]21C [Cethromycin]
Outgoing: > 100 mg/mL
